Entries below carry reported pIC50 on LIM domain kinase 1 (Homo sapiens).
Sequence (P53667 whole entry, the tested form may be a part): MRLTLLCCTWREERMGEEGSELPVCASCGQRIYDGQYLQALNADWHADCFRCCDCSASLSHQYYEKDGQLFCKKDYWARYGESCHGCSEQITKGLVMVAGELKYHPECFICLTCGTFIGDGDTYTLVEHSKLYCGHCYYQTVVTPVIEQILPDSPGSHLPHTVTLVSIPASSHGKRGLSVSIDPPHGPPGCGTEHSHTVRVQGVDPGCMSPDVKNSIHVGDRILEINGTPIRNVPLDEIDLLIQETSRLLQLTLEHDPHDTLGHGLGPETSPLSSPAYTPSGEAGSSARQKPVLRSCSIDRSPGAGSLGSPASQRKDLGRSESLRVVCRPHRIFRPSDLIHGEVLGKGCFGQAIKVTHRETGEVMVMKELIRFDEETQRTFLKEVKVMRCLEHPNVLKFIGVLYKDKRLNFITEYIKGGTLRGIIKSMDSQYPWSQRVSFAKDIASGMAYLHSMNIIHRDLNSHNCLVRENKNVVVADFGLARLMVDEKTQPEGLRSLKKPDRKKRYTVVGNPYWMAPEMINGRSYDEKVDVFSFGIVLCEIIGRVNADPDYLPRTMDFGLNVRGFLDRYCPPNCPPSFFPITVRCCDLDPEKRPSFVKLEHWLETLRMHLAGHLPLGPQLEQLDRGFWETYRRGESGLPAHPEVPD
pIC50: −log10 of the molar value.
measurement.name: pIC50

Solved entries:
**Q:** Given the entry C#CCOC(=O)c1cccc(NC(=O)C2(CN(C)C)CCN(c3ncnc4[nH]cc(C)c34)CC2)c1 , report its measured pIC50.
**A:** 8.12

**Q:** Given the entry Cc1[nH]c2ncnc(N3CCC(CN(C)C)(C(=O)Nc4cccc(OC(=O)N(C)C)c4)CC3)c2c1C , report its measured pIC50.
**A:** 7.66

**Q:** Given the entry COC(=O)c1cccc(NC(=O)C2(CN(C)C)CCN(c3ncnc4[nH]ncc34)CC2)c1 , report its measured pIC50.
**A:** 6.55

**Q:** Given the entry COC(=O)c1cccc(NC(=O)C2(N)CCN(c3ncnc4[nH]cc(C)c34)CC2)c1 , report its measured pIC50.
**A:** 7.74

**Q:** Given the entry CCC(C)OC(=O)c1cccc(NC(=O)C2(CN(C)C)CCN(c3ncnc4[nH]cc(C)c34)CC2)c1 (centres undefined) , report its measured pIC50.
**A:** 7.30

**Q:** Given the entry COC(=O)c1cccc(NC(=O)C2(CN(C)C)CCN(c3ccnc4[nH]ncc34)CC2)c1 , report its measured pIC50.
**A:** 7.19

**Q:** Given the entry COC(=O)c1cccc(NC(=O)C2(N)CCN(c3cc(N)ncn3)CC2)c1 , report its measured pIC50.
**A:** 6.02

**Q:** Given the entry COC(=O)Cc1cccc(NC(=O)C2(CN(C)C)CCN(c3ncnc4[nH]cc(C)c34)CC2)c1 , report its measured pIC50.
**A:** 7.24

**Q:** Given the entry COC(=O)c1ccc(NC(=O)C2(CN(C)C)CCN(c3ncnc4[nH]cc(C)c34)CC2)cc1 , report its measured pIC50.
**A:** 7.39

**Q:** Given the entry Cc1c[nH]c2ncnc(N3CCC(CN(C)C)(C(=O)Nc4cccc(OC(=O)N(C)C)c4)CC3)c12 , report its measured pIC50.
**A:** 7.72

P: COC(=O)c1cccc(NC(=O)C2(CN(C)C)CCN(c3ncnc4c3CC(=O)N4)CC2)c1
Q: COC(=O)c1cccc(NC(=O)C2(N)CCN(c3ncnc4[nH]ccc34)CC2)c1
**Q:** Consider entries P and Q . Which has the numerically lower pIC50? Could you answer with the label of the item you picked?
**A:** P
